# Protocol Details: Hemolytic activity in mice erythrocytes
# Type: cell-based, Mus musculus
# Run Parameters: male, Swiss albino, mouse, mouse erythrocyte suspension, pH 7.4, 250 μg/mL; 37°C, 2 h
Catalogue of hemolysis at 2 h, 250 μg/mL values
Give the value in % but do not write % after it.

- Compound: "CC(C)CCCC(C)CCO (centres unmarked)"
  Readout: "hemolysis at 2 h, 250 μg/mL"
  Output Unit: "%"
  Result: 5.64

Item: CC(C)=CCC/C(C)=C\CO [Nerol, cis-3,7-dimethyl-2,6-octadien-1] | hemolysis at 2 h, 250 μg/mL: 6.54

* * *

# Protocol Details: Hemolytic activity in mice erythrocytes
# Assay type: cell-based, Mus musculus
# Run Parameters: male, Swiss albino, mouse, mouse erythrocyte suspension, pH 7.4, 500 μg/mL; 37°C, 2 h
# Procedure: This test was performed on adult Swiss albino mouse (Mus musculus) erythrocytes. The mouse was collected from the Central Animal House of the Federal University of Piaui, Brazil. It was allowed free access to standard food and water ad libitum and was kept under controlled lighting (12 h dark/light cycles) at 24 ± 2°C. Blood was collected from the retro-orbital plexus of the mouse (male, 24 gm body weight). Hemolytic activity in mouse erythrocytes was performed, according to Jamialahmadi et al..
Readout: hemolysis at 2 h, 500 μg/mL

- Compound: "CC(C)CCCC(C)CCO (centres unmarked) [3,7-Dimethyl-1-octanol, 3,7-dimethyl-1-octanol]"
  hemolysis at 2 h, 500 μg/mL: "5.66%"

--- query ---
According to the records, this compound CC(C)=CCC/C(C)=C\CO [Nerol, cis-3,7-dimethyl-2,6-octadien-1] displays hemolysis at 2 h, 500 μg/mL of 39.1%

The reported measurements were obtained from paper PMC9712021.
